Cited source: patent US20110054149A1

# target-system: T1, GST-human NOGO-A56 (human, UniProt Q9NQC3 586-785)
# T1 construct: also called hNOGO; recombinant human NOGO; not shown: Glutathione S-transferase (GST) tag encoded by vector pGEX-6P1, N-terminal to the NOGO-A fragment; the tag and linker se
# T1 sequence: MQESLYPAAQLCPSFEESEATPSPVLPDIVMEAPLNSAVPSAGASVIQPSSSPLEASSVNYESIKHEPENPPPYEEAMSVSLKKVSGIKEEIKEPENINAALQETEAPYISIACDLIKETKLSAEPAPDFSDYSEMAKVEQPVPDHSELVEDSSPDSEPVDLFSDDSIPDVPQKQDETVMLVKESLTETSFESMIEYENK
# experimental-protocol: SPR (Biacore 3000), GST-human NOGO-A56 on CM5 chip, antibody as analyte; single experiment
Listed here: items and their measured Kd.

Lookup: May I ask what Kd has been recorded for H6L13 (antibody, human IgG1, kappa, V domains shown, Humanised 2A10; human gamma-1 mutated constant region, human kappa; also called H6L13 FL) VH: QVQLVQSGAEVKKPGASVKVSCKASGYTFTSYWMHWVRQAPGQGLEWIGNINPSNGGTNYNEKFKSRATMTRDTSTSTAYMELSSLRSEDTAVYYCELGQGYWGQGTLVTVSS VL: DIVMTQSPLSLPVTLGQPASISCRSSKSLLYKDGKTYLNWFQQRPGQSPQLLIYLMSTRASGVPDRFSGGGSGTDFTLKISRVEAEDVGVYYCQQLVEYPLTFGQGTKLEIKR ?
Found: 7.3 nM

Lookup: May I ask what Kd has been recorded for H14L18 (antibody, human IgG1, kappa, V domains shown, Humanised 2A10; human gamma-1 mutated constant region, human kappa) VH: QVQLVQSGAEVVKPGASVKLSCKASGYTFTSYWMHWVKQAPGQGLEWIGNINPSNGGTNYNEKFKSRATLTRDTSTSTAYMELSSLRSEDTAVYYCELGQGYWGQGTLVTVSS VL: DIVMTQDPLSNPVTLGQPVSISCRSSKSLLYKDGKTYLNWFLQRPGQSPQLLIYLMSTRASGVSDRFSGSGSGTDFTLKISRVEAEDVGVYYCQQLVEYPLTFGQGTKLEIKR ?
Found: 3.6 nM

Lookup: May I ask what Kd has been recorded for H14L16 (antibody, human IgG1, kappa, V domains shown, Humanised 2A10; human gamma-1 mutated constant region, human kappa) VH: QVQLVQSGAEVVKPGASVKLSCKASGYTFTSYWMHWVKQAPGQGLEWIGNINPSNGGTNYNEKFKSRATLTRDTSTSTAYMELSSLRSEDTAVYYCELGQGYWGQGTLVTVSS VL: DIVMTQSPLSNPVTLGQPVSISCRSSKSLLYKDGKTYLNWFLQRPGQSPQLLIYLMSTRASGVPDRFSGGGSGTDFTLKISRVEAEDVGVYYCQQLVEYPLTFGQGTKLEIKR ?
Found: 3.6 nM

Lookup: May I ask what Kd has been recorded for HcLc (chimera of 2A10: murine 2A10 VH and VL with human IgG constant regions) (antibody, V domains shown, also called 2A10 chimeric antibody; the chimera) VH: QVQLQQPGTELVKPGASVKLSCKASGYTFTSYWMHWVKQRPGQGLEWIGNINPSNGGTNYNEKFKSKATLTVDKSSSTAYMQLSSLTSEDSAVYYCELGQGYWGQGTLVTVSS VL: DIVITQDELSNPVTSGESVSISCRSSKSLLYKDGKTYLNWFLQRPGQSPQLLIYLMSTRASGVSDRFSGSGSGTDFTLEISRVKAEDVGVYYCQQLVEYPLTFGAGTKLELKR ?
Found: 1.6 nM
